Test system: Staphylococcus aureus
Test: Antibacterial activity against vancomycin-susceptible Staphylococcus aureus Mu50omega after 24 hrs by Etest
Format: functional
quantityName: MIC

// below: answered compounds
smi	testedTarget	MIC
O=C(O)c1cn(C2CC2)c2cc(N3CCNCC3)c(F)cc2c1=O	Staphylococcus aureus	> 32 µg/mL
CC[C@H]1OC(=O)[C@H](C)[C@@H](O[C@H]2C[C@@](C)(OC)[C@@H](O)[C@H](C)O2)[C@H](C)[C@@H](O[C@@H]2O[C@H](C)C[C@H](N(C)C)[C@H]2O)[C@](C)(O)C[C@@H](C)C(=O)[C@H](C)[C@@H](O)[C@]1(C)O	Staphylococcus aureus	> 256 µg/mL
C[C@H]1COc2c(N3CCN(C)CC3)c(F)cc3c(=O)c(C(=O)O)cn1c23.C[C@H]1COc2c(N3CCN(C)CC3)c(F)cc3c(=O)c(C(=O)O)cn1c23.O	Staphylococcus aureus	> 32 µg/mL
CCC[C@@H]1C[C@@H](C(=O)N[C@@H]([C@H]2O[C@H](SC)[C@H](O)[C@@H](O)[C@H]2O)[C@H](C)Cl)N(C)C1	Staphylococcus aureus	> 256 µg/mL
C[C@@H]1CN(c2c(F)c(N)c3c(=O)c(C(=O)O)cn(C4CC4)c3c2F)C[C@H](C)N1	Staphylococcus aureus	> 32 µg/mL
COc1cccc(OC)c1C(=O)N[C@@H]1C(=O)N2[C@@H]1SC(C)(C)[C@@H]2C(=O)O	Staphylococcus aureus	> 256 µg/mL

As a next step, examine the compound that follows.
// lookup MIC for `CC[C@H]1OC(=O)[C@H](C)[C@@H](O[C@H]2C[C@@](C)(OC)[C@@H](O)[C@H](C)O2)[C@H](C)[C@@H](O[C@@H]2O[C@H](C)C[C@H](N(C)C)[C@H]2O)[C@](C)(OC)C[C@@H](C)C(=O)[C@H](C)[C@@H](O)[C@]1(C)O`
> 256 µg/mL

The measurements presented in this section are drawn from ChEMBL document CHEMBL1629665.
